The values you see were collected from paper PMC10720262.

# test target: PfCSP full length (Plasmodium falciparum (isolate NF54), UniProt P19597)
# Sequence (P19597 20-375): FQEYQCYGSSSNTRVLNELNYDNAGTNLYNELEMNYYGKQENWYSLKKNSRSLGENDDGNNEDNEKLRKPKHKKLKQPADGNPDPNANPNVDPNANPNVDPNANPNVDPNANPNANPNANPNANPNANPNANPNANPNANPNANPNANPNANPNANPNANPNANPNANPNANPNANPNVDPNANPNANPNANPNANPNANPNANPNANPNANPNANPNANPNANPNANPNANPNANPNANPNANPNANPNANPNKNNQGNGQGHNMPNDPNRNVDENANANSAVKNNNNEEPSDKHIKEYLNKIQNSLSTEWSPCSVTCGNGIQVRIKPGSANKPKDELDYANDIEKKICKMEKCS
# measurement notes: ELISA AUC
# binding score annotations
Number, no unit, nothing else.

binder | binding score
CL-510640 (antibody, V domains shown, peptides N-terminally acetylated and C-terminally amidated) VH: QVQLVESGGGVVQPGRSLRLSCAASGFTFSNYGMHWVRQAPVKGLEWVAIIWYDGSNKFYADSVRGRFIISRDNSKNTLYLQMNSLRAEDTAVYFCARAREGQNSDYYGSETSYTFDSWGLGTLVTVSS VL: DIQMTQSPSTLSASVGDRVTITCRASQSISSWLAWYQQKPGKAPKFLIYKASSLESGVPSRFSGSGSGTEFTLTISSLQPDDFATYYCQQYKSYWTFGQGTKVEIK | 2.16
CL-509370 (antibody, V domains shown, peptides N-terminally acetylated and C-terminally amidated) VH: QVQLVESGGGVVQPGRSLRLSCAASGFTFSSYGMHWVRQAPGKGLEWVAVIWYDGSNKFYADSVKGHFTISRDNSKNTLYLQMNSLRAEDTAVYYCARDGRDLRGTGPYFDPWGQGTLVTVSS VL: EIVMTQSPATLSVSPGERAILSCRASQSVSSNLAWYQQKPGQAPRLLIYGASIRATGIPARFRGSGSGTEFTLTISILQSEDFAVYYCQQYNNWITFGQGTRLEIK | 2.09
CL-510499 (antibody, V domains shown, peptides N-terminally acetylated and C-terminally amidated) VH: QVQLVESGGGLVQPGRSLTLSCAASGFTFSNYGMHWVRQTPGKGLEWVALIRYDGSYKFYADSVKGRFTISRDNSKNTLYLQMNSLRAEDTAIYFCARDGDYSNSAGDFDYWGQGTLVTVSS VL: EIVLTQSPGTLSLSPGERATLSCRASQSVSSTNLAWYQQKPGQAPRLLIYGVSSRATGIPDRFSGSGSGTDFTLTINRLEPEDFAVYYCQQHGRSFTFGPGTKVEIK | 2.06

Kindly consider the entry below.
// lookup binding score for CL-509993 (antibody, V domains shown, peptides N-terminally acetylated and C-terminally amidated) VH: QVQLVESGGGVVQPGRSLRLSCVASGFTFSNNGMHWVRQAPGKGLEWVAIIWYDGSNKYYADSVKGRFTISRDNSNNTLYLQMNSLRAEDTAVYYCARDRMFGSGTWNYFDPWGQGTLVTVSS VL: EIVLTQSPATLSLSPGERATLSCRASQSVTTYLAWYQQKPGQAPRLLIYDASNRATGIPARFSGSGSGTDFTLTISSLEPEDFAVYYCQQRSNWWTFGQGTKVEIK
2.15
